assay: qHTS of pediatric cancer cell lines to identify multiple opportunities for drug repurposing: Primary screen for DAOY cells (AID 1347090); details: DAOY medulloblastoma viability, CellTiter-Glo luminescence, 48 h; series mostly up to 46 µM; note: nearly all actives have a fitted effect of over 55% in size
Records with an inconclusive call do not appear. Activity calls are given as the source filed them. Calls come from the whole dose curve; as a rule, active = well fitted cell-killing curve with a large enough effect; inconclusive = small, poorly fitted or top-dose-only effect; inactive = flat fitted curve, though single readings scatter.
Classes used: active, inactive

[[record]]
molecule = "Oc1ccccc1-c1ccccc1"
category_label = "inactive"

[[record]]
molecule = "NCC1(CC(=O)O)CCCCC1"
category_label = "inactive"

[[record]]
molecule = "NCC(O)c1ccc(O)cc1 (stereo not given)"
category_label = "inactive"

[[record]]
molecule = "C[C@H]1O[C@@H](O[C@H]2[C@@H](O)C[C@H](O[C@H]3[C@@H](O)C[C@H](O[C@H]4CC[C@@]5(C)[C@H](CC[C@@H]6[C@@H]5CC[C@]5(C)[C@@H](C7=CC(=O)OC7)CC[C@]65O)C4)O[C@@H]3C)O[C@@H]2C)C[C@H](O)[C@@H]1O"
category_label = "active"

[[record]]
molecule = "CC[N+]1(C)CCCC(OC(=O)C(O)(c2ccccc2)c2ccccc2)C1 (stereo not given)"
category_label = "inactive"

[[record]]
molecule = "CCCN1CCC[C@@H]2Cc3nc(N)ncc3C[C@H]21"
category_label = "inactive"

[[record]]
molecule = "CN(C)[C@@H]1C(=O)C(C(N)=O)=C(O)[C@@]2(O)C(=O)C3=C(O)c4c(O)cccc4[C@@](C)(O)[C@H]3C[C@@H]12"
category_label = "inactive"

[[record]]
molecule = "O=[N+]([O-])c1cc([As](=O)(O)O)ccc1O"
category_label = "inactive"

[[record]]
molecule = "CN(C)CCc1ccc(O)cc1"
category_label = "inactive"

[[record]]
molecule = "CN(C)CCN(C)CCc1ccc(Cl)c(Cl)c1"
category_label = "inactive"


----------
tested on: HEK293; experiment: Cytotoxic Profiling of Annotated Libraries Using Quantitative High-Throughput Screening (AID 1296008); conditions: Five cell lines viability, CellTiter-Glo ATP luminescence, 48-72 h; active compounds read low; note: % is set by controls: 0 for no effect and ±100 for the full control effect; nearly all actives have a fitted effect of over 60% in size
Inconclusive results are not listed.
Listed next: entries and their corresponding max response.
OBSERVABLE: max response (%)

[[record]]
compound = "Nc1ccncc1"
readout_units = "%"
value_reported = -0.798

[[record]]
compound = "N[C@@H]1C[C@H]1c1ccccc1"
readout_units = "%"
value_reported = -4.85

[[record]]
compound = "CCCC(C)(COC(N)=O)COC(=O)NC(C)C (centres undefined)"
readout_units = "%"
value_reported = 0.0303

[[record]]
compound = "c1ccc(C2CC2)c(OCC2=NCCN2)c1"
readout_units = "%"
value_reported = -2.25


----------
conditions: Ebola virus entry cell assay, ratio channel
The source made the active and inactive calls.
Classes used: active, inactive

[[record]]
molecule = "Oc1cn2c(n1)Nc1ccc(Cl)c(Cl)c1C2"
category_label = "inactive"

[[record]]
molecule = "COC1=CC(=O)C[C@@H](C)[C@]12Oc1c(Cl)c(OC)cc(OC)c1C2=O"
category_label = "inactive"

[[record]]
molecule = "Cc1cc(C)cc(OCC2CNC(=O)O2)c1 (stereo unspecified)"
category_label = "inactive"

[[record]]
molecule = "CC[C@H](C)C(=O)O[C@H]1C[C@@H](C)C=C2C=C[C@H](C)[C@H](CC[C@@H]3C[C@@H](O)CC(=O)O3)[C@H]21"
category_label = "inactive"

[[record]]
molecule = "NNCCc1ccccc1"
category_label = "inactive"

[[record]]
molecule = "C#CCN(C)[C@H](C)Cc1ccccc1"
category_label = "inactive"

[[record]]
molecule = "CCOC(=O)c1ncn2c1CN(C)C(=O)c1cc(F)ccc1-2"
category_label = "inactive"

[[record]]
molecule = "CCOC(=O)[C@H](CCc1ccccc1)N[C@@H](C)C(=O)N1Cc2ccccc2C[C@H]1C(=O)O"
category_label = "inactive"

[[record]]
molecule = "CC12CC3CC(C)(C1)CC(N)(C3)C2"
category_label = "inactive"

[[record]]
molecule = "C#Cc1cccc(Nc2ncnc3cc(OCCOC)c(OCCOC)cc23)c1"
category_label = "active"

[[record]]
molecule = "CC(=O)OCC(CCn1cnc2cnc(N)nc21)COC(C)=O"
category_label = "inactive"


----------
Test: Primary qHTS for small molecule stabilizers of the endoplasmic reticulum resident proteome: Secreted ER Calcium Modulated Protein (SERCaMP) assay (AID 1508630); note: % is set by controls: 0 for no effect and ±100 for the full control effect
Details: SH-SY5Y GLuc-SERCaMP (Gaussia luciferase released on ER calcium loss) secretion, thapsigargin, luminescence; series mostly up to 38.4 µM
Source text: Assay Provider: Brandon K. Harvey Ph.D. National Institute on Drug Abuse, National Institutes of Health, Baltimore, MD Endoplasmic reticulum (ER) dysregulation is associated with human pathologies including neurodegenerative, cardiovascular, muscular, and diabetic conditions. […] To identify such compounds, we performed a quantitative high-throughput screen (qHTS) using the SERCaMP assay, which monitors secretion of ER resident proteins triggered by calcium depletion. […]
Records with an inconclusive call do not appear. Active and inactive are the calls of the source. The call rests on the fitted dose curve; in most records, active means well fitted inhibition curve with a large enough effect; inconclusive means small, poorly fitted or top-dose-only effect; inactive means no such curve, though single readings can be large or run the other way.
OBSERVABLE: outcome

[[record]]
compound = "CN1CCN(C(=O)O[C@H]2c3nccnc3C(=O)N2c2ccc(Cl)cn2)CC1"
value_reported = "inactive"

[[record]]
compound = "CC(C)CC(N(C)C)C1(c2ccc(Cl)cc2)CCC1 (configuration not stated)"
value_reported = "inactive"

[[record]]
compound = "C[C@]12CC[C@H]3[C@@H](CCC4=CC(=O)CC[C@@H]43)[C@@H]1CC[C@@H]2OC(=O)CCc1ccccc1"
value_reported = "inactive"

[[record]]
compound = "Nc1ccncc1"
value_reported = "inactive"

[[record]]
compound = "c1ccc2c(c1)Nc1ccccc1S2"
value_reported = "inactive"

[[record]]
compound = "O=C(NC(O)C(Cl)(Cl)Cl)NC(O)C(Cl)(Cl)Cl (configuration not stated)"
value_reported = "inactive"

[[record]]
compound = "N[C@@H](Cc1ccc(N(CCCl)CCCl)cc1)C(=O)O"
value_reported = "inactive"


----------
assay: Primary qHTS to identify inhibitors of SARS-CoV-2 cell entry (AID 1645846); details: SARS-CoV-2 pseudovirus cell entry assay, luminescence; series mostly up to 57.1 µM; note: nearly all actives have a fitted effect of over 45% in size
Results filed as inconclusive are left out. Active and inactive are the calls of the source. Calls follow the shape of the full dose curve.
Classes used: active, inactive

[[record]]
compound = "COc1cc(Cc2cnc(N)nc2N)cc(OC)c1OC"
category_label = "inactive"

[[record]]
compound = "CN(C)[C@@H]1C(=O)C(C(N)=O)=C(O)[C@@]2(O)C(=O)C3=C(O)c4c(O)cccc4[C@@](C)(O)[C@H]3C[C@@H]12"
category_label = "inactive"

[[record]]
compound = "CN(C)CCc1c[nH]c2ccc(CS(=O)(=O)N3CCCC3)cc12"
category_label = "inactive"

[[record]]
compound = "Cc1nc2n(c(=O)c1CCN1CCC(c3noc4cc(F)ccc34)CC1)CCCC2"
category_label = "inactive"

[[record]]
compound = "Fc1ccc(C(OCCN2CCN(CCCc3ccccc3)CC2)c2ccc(F)cc2)cc1"
category_label = "active"

[[record]]
compound = "CCCC1CCCCN1 (stereo not drawn)"
category_label = "inactive"

[[record]]
compound = "CC12CC3CC(C)(C1)CC(N)(C3)C2"
category_label = "inactive"

[[record]]
compound = "CCCCNC(=O)NS(=O)(=O)c1ccc(C)cc1"
category_label = "inactive"

[[record]]
compound = "C[C@@H](NCCCc1cccc(C(F)(F)F)c1)c1cccc2ccccc12"
category_label = "active"

[[record]]
compound = "CNC1(C)C2CCC(C2)C1(C)C (stereo not drawn)"
category_label = "inactive"

[[record]]
compound = "c1ccc2c(c1)Nc1ccccc1S2"
category_label = "inactive"

[[record]]
compound = "CN(C)CCCN1c2ccccc2CCc2ccc(Cl)cc21"
category_label = "active"

[[record]]
compound = "C=C1CC[C@@]2(O)[C@H]3Cc4ccc(O)c5c4[C@@]2(CCN3CC2CC2)[C@H]1O5"
category_label = "inactive"

[[record]]
compound = "N=C(N)c1ccc(OCCCCCOc2ccc(C(=N)N)cc2)cc1"
category_label = "active"

[[record]]
compound = "OCCN1CCN(CCCN2c3ccccc3Sc3ccc(C(F)(F)F)cc32)CC1"
category_label = "inactive"

[[record]]
compound = "C[C@](N)(Cc1ccc(O)c(O)c1)C(=O)O"
category_label = "inactive"

[[record]]
compound = "Cn1cnc([N+](=O)[O-])c1Sc1ncnc2nc[nH]c12"
category_label = "inactive"

[[record]]
compound = "CN(C)[C@@H]1C(=O)C(C(N)=O)=C(O)[C@@]2(O)C(=O)C3=C(O)c4c(O)ccc(Cl)c4[C@@H](O)[C@H]3C[C@@H]12"
category_label = "inactive"


----------
experiment: qHTS of pediatric cancer cell lines to identify multiple opportunities for drug repurposing: Primary screen for NB-EBc1 cells (AID 1347095); conditions: NB-EBc1 neuroblastoma viability, CellTiter-Glo luminescence, 48 h; series mostly up to 46 µM; note: potency is the fitted concentration of half-maximal effect
Records with an inconclusive call do not appear. The source made the active and inactive calls. Calls follow the shape of the dose curve; as a rule, active = well fitted cell-killing curve with a large enough effect; inconclusive = small, poorly fitted or top-dose-only effect; inactive = no such curve, though single readings can be large or run the other way.
OBSERVABLE: Potency

[[record]]
molecule = "Fc1ccc(C(OCCN2CCN(CCCc3ccccc3)CC2)c2ccc(F)cc2)cc1"
observable = "Potency"
value_reported = "23.7 µM (active)"

[[record]]
molecule = "C[C@@H]1[C@@H](CC(C[C@H]2O[C@@H]3O[C@]4(C)CC[C@@H]5[C@H](C)CC[C@@H]([C@H]2C)[C@@]35OO4)C[S+](=O)([O-])c2ccc(COC(=O)N(C)C)cc2)O[C@@H]2O[C@]3(C)CC[C@H]4[C@H](C)CC[C@@H]1[C@@]24OO3 (some centres undefined)"
observable = "Potency"
value_reported = "0.418 µM (active)"

[[record]]
molecule = "C=CCN1CC[C@]23c4c5ccc(O)c4O[C@H]2C(=O)CC[C@@]3(O)[C@H]1C5"
observable = "Potency"
value_reported = "inactive"

[[record]]
molecule = "C[C@]12CC[C@H]3[C@@H](CCC4=CC(=O)CC[C@@H]43)[C@@H]1CC[C@@H]2OC(=O)CCc1ccccc1"
observable = "Potency"
value_reported = "inactive"

[[record]]
molecule = "CC(C)(C)CC(C)(C)c1ccc(O)cc1"
observable = "Potency"
value_reported = "30.6 µM (active)"

[[record]]
molecule = "Cc1cccc(C)c1NC(=O)CN1CCCC1=O"
observable = "Potency"
value_reported = "inactive"

[[record]]
molecule = "COc1ccc2c(c1OC)CN1CCc3cc4c(cc3C1C2)OCO4 (centres undefined)"
observable = "Potency"
value_reported = "inactive"

[[record]]
molecule = "CCCC(C)(COC(N)=O)COC(=O)NC(C)C (centres undefined)"
observable = "Potency"
value_reported = "inactive"

[[record]]
molecule = "NP(N)(=O)NC(=O)c1ccc(F)cc1"
observable = "Potency"
value_reported = "inactive"

